Just for reference, paper PMC9090415 is where these values come from.

Target: P. falciparum apicoplast DNA polymerase (Pf-apPOL) (Plasmodium falciparum)
Sequence (Q8ILY1 entry or part of it): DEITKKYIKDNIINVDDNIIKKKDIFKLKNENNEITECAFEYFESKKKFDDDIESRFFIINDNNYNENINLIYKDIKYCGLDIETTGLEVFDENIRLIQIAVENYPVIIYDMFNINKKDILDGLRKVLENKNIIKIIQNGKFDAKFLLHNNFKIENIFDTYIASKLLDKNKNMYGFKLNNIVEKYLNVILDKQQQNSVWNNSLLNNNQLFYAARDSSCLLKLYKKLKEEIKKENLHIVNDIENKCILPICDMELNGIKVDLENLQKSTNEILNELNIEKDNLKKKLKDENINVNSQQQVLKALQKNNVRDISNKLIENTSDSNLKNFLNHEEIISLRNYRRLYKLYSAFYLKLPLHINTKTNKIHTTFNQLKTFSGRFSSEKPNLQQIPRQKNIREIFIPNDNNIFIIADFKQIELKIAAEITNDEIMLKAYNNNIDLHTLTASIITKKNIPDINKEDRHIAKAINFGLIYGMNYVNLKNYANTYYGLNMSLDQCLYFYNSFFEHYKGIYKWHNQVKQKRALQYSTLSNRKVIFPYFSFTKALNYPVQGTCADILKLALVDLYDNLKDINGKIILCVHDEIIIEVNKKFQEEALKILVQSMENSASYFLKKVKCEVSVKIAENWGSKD
Assay: Fluorescence-based high-throughput DNA polymerase assay (molecular beacon), primary screen and dose-response
Assay type: biochemical
Conditions: DRC-1; 10'; conc 40
Text: The HT assay employs a molecular beacon, a stem-loop DNA template with a Cy3 dye and the Black Hole Quencher on the 3′ and 5′ ends of the DNA, respectively. Pf-apPOL concentration is based on a calculated absorptivity of ε280 = 56750 M^−1 cm^−1. […] To identify apPOL inhibitors we utilised our previously developed high-throughput DNA polymerase assay. […] The assay accurately recapitulates the kinetic behaviour of apPOL, as measured through more conventional low-throughput gel-based assays. […]
Property measured: % inhibition Apo pol 10' (%)
Please reply with the bare figure in % and do not write the unit itself.

Record summary for COC(=O)c1sc(-c2ccc(C(C)(C)C)cc2)cc1NC(=O)CCC(=O)O : reported % inhibition Apo pol 10' = 94.7696

Record summary for CCOc1nc2cccc(C(=O)OC(C)OC(=O)OC3CCCCC3)c2n1Cc1ccc(-c2ccccc2-c2nnn[nH]2)cc1 (stereo not drawn) : reported % inhibition Apo pol 10' = 96.7244

Record summary for Cc1cccc(NC(=O)Cn2ccc3c(=O)[nH]ccc32)c1C [Molecule 11, O=C(Cn1ccc2c1cc[nH]c2=O)Nc1cccc(c1C)C] : reported % inhibition Apo pol 10' = 89.6589

Record summary for O=c1nc(/C=C/c2ccc(Br)cc2)oc2ccccc12 : reported % inhibition Apo pol 10' = 88.0772

Record summary for O=C1NN(c2ccc(Cl)c(Cl)c2)C(=O)/C1=C/c1ccc(-c2ccc3c(c2)C(=O)OC3)o1 : reported % inhibition Apo pol 10' = 90.5867

Record summary for C=CCOc1c(Br)cc(Br)cc1/C=C1\SC(=N)NC1=O : reported % inhibition Apo pol 10' = 88.1194

Record summary for N#CC(C#N)=C1SCN(c2cccc(Cl)c2)CS1 : reported % inhibition Apo pol 10' = 91.3949

Record summary for COc1ccccc1C1CC(=O)Oc2cc3c(cc21)OCO3 (stereo not drawn) : reported % inhibition Apo pol 10' = 89.9974

Record summary for Cc1ccc(NC(=O)Cn2ccc3c(=O)[nH]ccc32)c(C)c1 : reported % inhibition Apo pol 10' = 86.5673

Record summary for CC(C)CCNC(=O)c1cnn2c(O)cc(CSc3ccc(Cl)cc3)nc12 : reported % inhibition Apo pol 10' = 93.5546

Record summary for Cc1ccc(N2NC(=O)/C(=C\c3ccc(O)c([N+](=O)[O-])c3)C2=O)cc1Cl : reported % inhibition Apo pol 10' = 90.9483

Record summary for Cc1cccc(C2=N/C(=C\c3ccc([N+](=O)[O-])o3)C(=O)O2)c1 : reported % inhibition Apo pol 10' = 86.7912

Record summary for C=CC1=C(C)c2cc3[nH]c(cc4nc(cc5[nH]c(cc1n2)c(C)c5CCC(=O)O)C(CCC(=O)O)=C4C)c(C)c3C=C : reported % inhibition Apo pol 10' = 92.3128

Record summary for O=C(O)c1ccc(COc2cc([N+](=O)[O-])cc3cccnc23)cc1 : reported % inhibition Apo pol 10' = 92.5507

Record summary for Cc1ccccc1NC(=O)Cn1ccc2c(=O)[nH]ccc21 [Molecule 50, O=C(Cn1ccc2c1cc[nH]c2=O)Nc1ccc(cc1)C] : reported % inhibition Apo pol 10' = 88.6284

Record summary for O=C1Nc2ccc(I)cc2C1=Cc1cc(Br)c(O)c(Br)c1 : reported % inhibition Apo pol 10' = 74.9605

Record summary for Cc1ccc(CNC(=O)c2cnn3c(O)cc(CSc4ccc(Cl)cc4)nc23)cc1 : reported % inhibition Apo pol 10' = 95.4401

Record summary for Cc1cc(C)c2c(c1)C1C=CCC1C(c1ccc(C(=O)O)cc1)N2 (stereo not drawn) : reported % inhibition Apo pol 10' = 91.6956
